The reported numbers originate from a melting point compilation (Tetko et al.; mined from patent text by program, amines drawn as free bases though some values may be those of a salt).

Parameter: melting point. Scope: all listed entries.

compound: O=C(O)c1cc(Br)no1
observation-type: melting point
result: 176 to 177 °C

compound: CC(=O)c1ccc(NC(=O)NCCCN(CCCNC(=O)Nc2ccc(C(C)=O)cc2)CCCNC(=O)Nc2ccc(C(C)=O)cc2)cc1
observation-type: melting point
result: 184 to 185 °C

compound: COc1cc(C(=O)O)ccc1Cn1ccc2ccc(CC(=O)NCC3CCCC3)cc21
observation-type: melting point
result: 188 to 189 °C

compound: CC(Oc1ccc(Oc2nc3ccc(Cl)cc3o2)cc1)C(=O)OC[Si](C)(C)C (stereo unspecified)
observation-type: melting point
result: 68 °C

compound: CCCCC(=N)NC(=O)Nc1ccc(OC)cc1
observation-type: melting point
result: 144 to 145 °C

Shifting focus to the compound that follows.
QUERY: # melting point lookup, item CCc1ccc2c(c1)C1CN(C(=O)CCC(=O)c3ccc(F)cc3)CCC1N2 (stereo unspecified)
RESULT: 120 to 124 °C
